- Tested on: 2008
- measurement_protocol: Alamar Blue cell viability assay, 2008
- Format: cell-based
- condition_description: cell proliferation inhibition, 96 h incubation, read-out: Pharmaceutical activity IC50 2008
- Method: Inhibitory activity on cell proliferation of representative compounds of the invention was determined using an Alamar Blue cell viability assay as described hereafter. […] Once titrations are made, the media in plates with cells were disposed and 100 μL of drug dilutions are transferred to plates with cells. […] At the end of this incubation the production of resofurin was measured using Spectrmax M2 microplate reader (Molecular Devices, Sunnyvale, Calif.)
pIC50: −log10 of the molar value.
endpoint: pIC50

In: Entry CNC(=O)c1cc2ccc(N3CCCN(C)CC3)nc2n2c1nc1ccccc12 needs its pIC50 filled in; supply it.
Out: > 6.00
